attribute_measured: melting point

INSERT INTO assay_data (molecule, observed_value) VALUES
  ('O=C(CCC(c1cc(F)ccc1F)S(=O)(=O)c1ccc(Cl)cc1)N1CCCC1 (stereo not shown)', '134 to 135 °C'),
  ('CC(CCO)C(c1cc(F)ccc1F)S(=O)(=O)c1ccc(Cl)cc1 (single isomer, unassigned) [Example 238]', '111 to 112 °C'),
  ('O=C(c1ccncc1)N1CCC(c2cc(F)ccc2F)(S(=O)(=O)c2ccc(Cl)cc2)CC1', '245 to 248 °C'),
  ('O=S(=O)(c1ccc(Cl)cc1)C(CCc1ccc(F)cc1)c1cc(F)ccc1F (stereo not shown)', '131 to 132 °C'),
  ('CS(=O)(=O)CCCCC(c1ccccc1)S(=O)(=O)c1ccc(Cl)cc1 (stereo not shown)', '151 to 152 °C'),
  ('CN(C)S(=O)(=O)NCc1ccc(C(c2cc(F)ccc2F)S(=O)(=O)c2ccc(Cl)cc2)nc1 (stereo not shown)', '177 to 178 °C'),
  ('CCCC(=O)C(c1cc(F)ccc1F)S(=O)(=O)c1ccc(Cl)cc1 (stereo not shown)', '85.5 to 86 °C'),
  ('CC(CCCS(C)(=O)=O)C(c1cc(F)ccc1F)S(=O)(=O)c1ccc(Cl)cc1 (stereo not shown) [Example 46]', '115 to 117 °C'),
  ('CCCC(O)C(c1cc(F)ccc1F)S(=O)(=O)c1ccc(Cl)cc1 (stereo not shown) [Example 10]', '134.5 to 135 °C'),
  ('O=C(OCCC(c1cc(F)ccc1F)S(=O)(=O)c1ccc(Cl)cc1)N1CCCC1 (stereo not shown)', '109 to 110 °C'),
  ('CS(=O)(=O)CCCCC(c1cnccc1Cl)S(=O)(=O)c1ccc(Cl)cc1 (stereo not shown)', '156 to 157 °C'),
  ('O=S(=O)(c1ccc(Cl)cc1)C(CCCC1CCCCC1)c1cc(F)ccc1F (stereo not shown)', '47 to 49 °C'),
  ('CC(CCC[S+](C)[O-])C(c1cc(F)ccc1F)S(=O)(=O)c1ccc(Cl)cc1 (stereo not shown)', '107 to 112 °C'),
  ('O=S(=O)(c1ccc(Cl)cc1)C(CCCCCCO)c1cc(F)ccc1F (stereo not shown)', '77 to 79 °C'),
  ('CN(C)CC(=O)N1CCC(c2cc(F)ccc2F)(S(=O)(=O)c2ccc(Cl)cc2)CC1', '88 to 92 °C'),
  ('O=S(=O)(c1ccc(Cl)cc1)C(c1cc(F)ccc1F)C1CCOCC1 (stereo not shown)', '150 to 152 °C'),
  ('O=S(=O)(c1ccc(Cl)cc1)C(Cc1ccncc1)c1cc(F)ccc1F (stereo not shown)', '129 °C'),
  ('CN(C)CCCC(c1ccncc1)S(=O)(=O)c1ccc(Cl)cc1 (stereo not shown)', '78 to 80 °C'),
  ('Cl.O=C(OCCC(c1cc(F)ccc1F)S(=O)(=O)c1ccc(Cl)cc1)N1CCN(Cc2ccccc2)CC1 (stereo not shown)', '184 to 189 °C'),
  ('Cc1ccc(CCC(c2cc(F)ccc2F)S(=O)(=O)c2ccc(Cl)cc2)cc1 (stereo not shown)', '82 to 84 °C'),
  ('Cc1cccnc1C(c1cc(F)ccc1F)S(=O)(=O)c1ccc(Cl)cc1 (stereo not shown)', '142 to 143 °C'),
  ('CN1CCC(C(c2ccncc2)S(=O)(=O)c2ccc(Cl)cc2)CC1 (stereo not shown)', '176 to 177 °C'),
  ('O=C(O)CCc1ccc(C(c2cc(F)ccc2F)S(=O)(=O)c2ccc(Cl)cc2)nc1 (stereo not shown)', '158 to 160 °C'),
  ('O=S(=O)(c1ccc(Cl)cc1)C(CCCc1ccccc1)c1cc(F)ccc1F (stereo not shown)', '107 to 108 °C'),
  ('O=C(CC(c1cc(F)ccc1F)S(=O)(=O)c1ccc(Cl)cc1)OCc1ccccc1 (stereo not shown)', '127 to 128 °C'),
  ('O=S(=O)(c1ccc(Cl)cc1)C(Cc1ccccn1)c1cc(F)ccc1F (stereo not shown)', '105 to 107 °C'),
  ('COc1cccc(C(CCCCS(C)(=O)=O)S(=O)(=O)c2ccc(Cl)cc2)c1 (stereo not shown)', '91 to 93 °C'),
  ('CN(C)CC(=O)NCc1ccc(C(c2cc(F)ccc2F)S(=O)(=O)c2ccc(Cl)cc2)nc1 (stereo not shown)', '177 to 179 °C'),
  ('O=S(=O)(c1ccc(Cl)cc1)C(c1cc(F)ccc1F)C1CCCCC1 (stereo not shown)', '107 to 109 °C'),
  ('CS(=O)(=O)CCCCC(c1ccc(Cl)c(Cl)c1)S(=O)(=O)c1ccc(Cl)cc1 (stereo not shown)', '143 to 144 °C'),
  ('CC(CCCO)C(c1cc(F)ccc1F)S(=O)(=O)c1ccc(Cl)cc1 (stereo not shown) [Example 39]', '84 to 86 °C'),
  ('Cl.O=C(NCCCC(c1cc(F)ccc1F)S(=O)(=O)c1ccc(Cl)cc1)c1cccnc1 (stereo not shown)', '154 to 157 °C'),
  ('CCOC(=O)C(=O)NCc1ccc(C(c2cc(F)ccc2F)S(=O)(=O)c2ccc(Cl)cc2)nc1 (stereo not shown)', '193 to 194 °C'),
  ('O=C(c1ccccn1)N1CCC(c2cc(F)ccc2F)(S(=O)(=O)c2ccc(Cl)cc2)CC1', '193 to 196 °C');
